molecular target: Cytochrome P450 2C9 (Homo sapiens); assay: Cytochrome panel assay with activity outcomes; conditions: recombinant CYP, pro-luciferin dealkylation, luminescence, p450-cyp2c9; series mostly up to 57.1 µM
The campaign covered roughly 16,000 compounds. About 4,000 (25%) were called active. About 26% were inconclusive and are not listed. Calls come from the whole dose curve; as a rule, active = well fitted curve in the direction sought with a large enough effect; inconclusive = small, poorly fitted or top-dose-only effect, or effect the other way; inactive = no such curve, though single readings can be large or run the other way. A selection follows.
Write down the outcome that applies. Available outcomes: active, inactive

stdin: Tell me the recorded outcome of this test for OC[C@@H]1O[C@@H](n2cnc3c(NC4CCCCC4)ncnc32)[C@@H](O)[C@H]1O .
stdout: inactive

stdin: What was the test verdict on O=C1Nc2ccccc2C(O)(C(=O)NCc2ccc3c(c2)OCO3)N1c1ccc(Cl)c(Cl)c1 (stereo not drawn) ?
stdout: inactive

stdin: How did this test come out for O=C(NCc1ccc2c(c1)OCO2)C1CC(=O)N(C2CCCC2)C1 (stereo not drawn) ?
stdout: inactive

stdin: I'd appreciate the recorded outcome for C/C(=C\C(=O)c1ccc(Cl)cc1)NCc1ccc2c(c1)OCO2 from this test.
stdout: active

stdin: Hello, I am checking results. What call was entered for CC1(C)Cc2c(sc3c2C(=O)N(c2ccccc2)C2=NCCN23)CS1 ?
stdout: inactive

stdin: Given O=C(NNc1nc2ccccc2s1)C1CC1 , state the outcome it received in this test.
stdout: inactive

Further cases:
stdin: Record lookup: outcome of this test for Cc1ccc(/C=N/n2c(COc3ccccc3)n[nH]c2=S)s1 ?
stdout: active

stdin: # outcome recorded in this test, key = c1ccc2nc(-c3ccncc3)ccc2c1
stdout: active

stdin: Outcome logged for Cc1ccc(CSc2nc3c(c(SCC(=O)O)n2)CCCC3)cc1 in this assay:
stdout: active

stdin: What did this assay record as the result for CC1=NNC(=O)C1CCC(=O)N/N=C\c1ccccc1[N+](=O)[O-] (stereo not drawn) ?
stdout: inactive

stdin: Query: recorded result category for CC1(C)CC(NCc2ccc3c(c2)OCO3)CCO1 (stereo not drawn) in this test
stdout: inactive

* * *

target: Cytochrome P450 2C9 (Homo sapiens) (UniProt P11712); test: Cytochrome panel assay with activity outcomes; conditions: recombinant CYP, pro-luciferin dealkylation, luminescence, p450-cyp2c9; series mostly up to 57.1 µM
Sequence (P11712 whole entry, looked up): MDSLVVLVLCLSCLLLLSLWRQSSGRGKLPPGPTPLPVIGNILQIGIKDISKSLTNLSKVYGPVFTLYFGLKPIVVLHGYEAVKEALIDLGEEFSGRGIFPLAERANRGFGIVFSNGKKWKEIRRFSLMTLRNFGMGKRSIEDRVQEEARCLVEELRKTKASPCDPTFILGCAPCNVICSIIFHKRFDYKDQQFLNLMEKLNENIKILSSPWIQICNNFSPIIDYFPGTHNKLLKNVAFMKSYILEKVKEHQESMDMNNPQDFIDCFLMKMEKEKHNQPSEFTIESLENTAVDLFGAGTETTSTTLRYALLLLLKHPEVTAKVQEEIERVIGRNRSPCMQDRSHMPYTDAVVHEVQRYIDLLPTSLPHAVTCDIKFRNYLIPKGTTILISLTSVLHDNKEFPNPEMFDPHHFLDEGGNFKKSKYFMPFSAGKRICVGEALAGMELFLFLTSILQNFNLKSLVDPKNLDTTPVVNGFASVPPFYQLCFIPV
Among all 16,000 compounds or so, about 4,000 (25%) were called active. Another 26% or so got no clear call; they are omitted. Calls follow the shape of the dose curve; as a rule, active = well fitted curve in the direction sought with a large enough effect; inconclusive = small, poorly fitted or top-dose-only effect, or effect the other way; inactive = no such curve, though single readings can be large or run the other way. The list is a sample of the results.
Allowed answers: active, inactive

stdin: Entry CN(C)CCn1c(=O)n(Cc2ccco2)c(=O)c2c3c(sc21)CCCCC3 : call = ?
stdout: active

stdin: Assay outcome for C[C@@H]1C[C@H](OC(=O)[C@@H](O)c2ccccc2)CC(C)(C)N1C : what was it?
stdout: inactive

stdin: # fetch the recorded call for NC(=O)Cn1c(=O)n(Cc2ccco2)c(=O)c2c3c(sc21)CCCCC3 here
stdout: active

New cases:
stdin: Outcome? COc1cc(C(=O)Nc2ccc3c(c2)OCCO3)c(-n2cnnn2)cc1OC
stdout: inactive

stdin: I would be grateful if you could indicate the recorded call for COc1ccc(-n2c(=O)[nH]cc(C(=O)Nc3ccc4c(c3)OCCO4)c2=O)cc1 .
stdout: active

* * *

target: Cytochrome P450 2C9 (Homo sapiens) (UniProt P11712); assay: Cytochrome panel assay with activity outcomes; settings: recombinant CYP, pro-luciferin dealkylation, luminescence, p450-cyp2c9; series mostly up to 57.1 µM
Among all 16,000 compounds or so, about 4,000 (25%) were called active. Roughly 26% stayed inconclusive and do not appear here. The call rests on the fitted dose curve; in most records, active means well fitted curve in the direction sought with a large enough effect; inconclusive means small, poorly fitted or top-dose-only effect, or effect the other way; inactive means no such curve, though single readings can be large or run the other way. The list is a sample of the results.
// classify into active, inactive

stdin: Test call, this compound: OC(COCc1ccccc1)Cn1cnc2ccccc21 (stereo unspecified)
stdout: active

stdin: Tell me the assay call for c1ccc(-c2c3ccccc3nc3[nH]c4ccccc4c23)cc1 please.
stdout: active

stdin: Can you look up the reported call for CCCCc1c2ccccc2nc2[nH]c3ccccc3c12 for me?
stdout: inactive

stdin: Recorded test outcome, item COc1ccc([C@@H](C)c2cc3c(cc2O)OCO3)cc1
stdout: active

stdin: Hi team, can someone confirm the assay call for COc1ccc([C@@H](Nc2ncccn2)c2cc3c(cc2O)OCO3)cc1 ?
stdout: active

// switching to the query compound
stdin: Query: recorded result category for O=C1C=C(NCCc2cc(Br)c(O)c(Br)c2)C(=O)c2ncccc21 in this test
stdout: active

* * *

Biological target: Cytochrome P450 2C9 (Homo sapiens) (UniProt P11712)
Test: Cytochrome panel assay with activity outcomes
Conditions: recombinant CYP, pro-luciferin dealkylation, luminescence, p450-cyp2c9; series mostly up to 57.1 µM
Procedure: The P450 gene superfamily is involved in the metabolism and clearance of xenobiotics. This assay used various human CYP P450 isozymes to measure the dealkylation of various pro-luciferin substrates to luciferin. The luciferin is then measured by luminescence after the addition of a luciferase detection reagent. […] Inhibitors and some substrates limit the production of luciferin, and decrease measured luminescence. […] 8, Detection, 1 sec, ViewLux luminescent read […]
Out of some 16,000 compounds screened, about 4,000 (25%) were called active. Roughly 26% stayed inconclusive and do not appear here. The call rests on the fitted dose curve; in most records, active means well fitted curve in the direction sought with a large enough effect; inconclusive means small, poorly fitted or top-dose-only effect, or effect the other way; inactive means no such curve, though single readings can be large or run the other way. Not all results are given here.
Your answer must be one of the following: true = active, false = inactive

Some solved entries appear below for comparison.
stdin: Recorded call for O=C(NNc1cccc(Cl)n1)Nc1ccccc1Cl ?
stdout: false

stdin: Tell me the recorded outcome of this test for CC(CP(=O)(O)O)NC(=O)Cc1ccccc1 (stereo not drawn) .
stdout: false

stdin: Kindly provide the recorded test outcome for the following compound: O=C(O)c1ccccc1C(=O)Nc1nccs1
stdout: false

stdin: Entry O=C1CCCC=C1[C@@H](O)CCOC(c1ccccc1)(c1ccccc1)c1ccccc1 : call = ?
stdout: true

stdin: Give the logged outcome of this assay for the following compound: COCC(=O)N1CCC2(CC1)CCN(C(=O)Nc1ccc(OC)cc1)CC2
stdout: false

stdin: Would you mind telling me which call this test gave CCOC(=O)n1c(=O)n(Cc2c(Cl)cccc2Cl)c2ccccc21 ?
stdout: true

New cases:
stdin: Identify the outcome logged in this assay for the compound shown: N#Cc1cccc(NC(=O)N2CC3(CCN(C(=O)c4ccco4)CC3)C2)c1
stdout: false

stdin: What classification did O=C(OCC(=O)c1cccs1)c1cccc(C(=O)OCC(=O)c2cccs2)n1 end up with in this test?
stdout: true

stdin: What call does the record list for N#Cc1cccc(NC(=O)N2CCCC3(CCN(C(=O)c4cc(C(F)(F)F)cc(C(F)(F)F)c4)CC3)C2)c1 ?
stdout: false

stdin: Test call, this compound: O=C(O)C1CCCCC1C(=O)Nc1cc(Cl)ccc1Cl (stereo not drawn)
stdout: false

stdin: Tell me the recorded outcome of this test for Cc1nc2ncnn2c(C)c1CCC(=O)NCc1ccccc1 .
stdout: false

* * *

molecular target: Cytochrome P450 2C9 (Homo sapiens); assay: Cytochrome panel assay with activity outcomes; conditions: recombinant CYP, pro-luciferin dealkylation, luminescence, p450-cyp2c9; series mostly up to 57.1 µM
About 4,000 (25%) of roughly 16,000 compounds were called active. About 26% were inconclusive and are not listed. Calls come from the whole dose curve; as a rule, active = well fitted curve in the direction sought with a large enough effect; inconclusive = small, poorly fitted or top-dose-only effect, or effect the other way; inactive = no such curve, though single readings can be large or run the other way. The list is a sample of the results.
Field 'call' accepts active, inactive

Before answering, review these 6 worked examples.
stdin: Kindly provide the recorded test outcome for the following compound: COc1ccccc1N1CCN(C[C@@H](O)COc2cccc3ccccc23)CC1
stdout: inactive

stdin: Name the outcome recorded for O=C(Nn1cc(C(=O)N2CCN(c3ccccc3F)CC2)c2ccccc2c1=O)c1cnccn1 in the assay.
stdout: active

stdin: What outcome does the record of this test show for Cc1ccc(-c2cc(C(F)F)n3ncc(C(=O)Nc4c(C)nn(Cc5c(Cl)cccc5Cl)c4C)c3n2)cc1 ?
stdout: active

stdin: Please share the test call associated with O=C(Nc1ccccc1)N1CC2(CCN(C(=O)c3cnccn3)CC2)C1 .
stdout: inactive

stdin: How did this test come out for OC[C@@H](O)COc1cccc2ccccc12 ?
stdout: inactive

stdin: // param item: C#CCSc1nncn1C(=O)/C=C/c1ccccc1 ; yields the recorded call
stdout: active

Consider the record given below.
stdin: What classification did Fc1ccc(-c2cnc(-c3cccs3)o2)cc1 end up with in this test?
stdout: active

* * *

molecular target: Cytochrome P450 2C9 (Homo sapiens) (UniProt P11712); experiment: Cytochrome panel assay with activity outcomes; settings: recombinant CYP, pro-luciferin dealkylation, luminescence, p450-cyp2c9; series mostly up to 57.1 µM
Out of some 16,000 compounds screened, about 4,000 (25%) were called active. Inconclusive results (about 26%) are left out. The call rests on the fitted dose curve; in most records, active means well fitted curve in the direction sought with a large enough effect; inconclusive means small, poorly fitted or top-dose-only effect, or effect the other way; inactive means no such curve, though single readings can be large or run the other way. The list is a sample of the results.
# valid calls are 1 (active), 0 (inactive); nothing else

stdin: State the result this test recorded for CCOc1cc(-c2noc(N)c2C#N)cc(OCC)c1OCC .
stdout: 1

stdin: Answer briefly: the call reported for Cc1ccc(S(=O)(=O)N2CCN(C(=O)c3ccccc3)C2C(C)C)cc1 (stereo unspecified) in this assay.
stdout: 1

* * *

target: Cytochrome P450 2C9 (Homo sapiens); assay: Cytochrome panel assay with activity outcomes; settings: recombinant CYP, pro-luciferin dealkylation, luminescence, p450-cyp2c9; series mostly up to 57.1 µM
Hit rate of the full screen: of about 16,000 compounds, about 4,000 (25%) were called active. Inconclusive results (about 26%) are left out. Calls come from the whole dose curve; as a rule, active = well fitted curve in the direction sought with a large enough effect; inconclusive = small, poorly fitted or top-dose-only effect, or effect the other way; inactive = no such curve, though single readings can be large or run the other way. A selection follows.
Assign a class; possible classes are class 1 for active, class 0 for inactive

The following compounds have reported results that may help.
stdin: Recorded test outcome, item COc1cccc(Nc2ncc3nc(-c4cccs4)c(=O)n(-c4ccccc4)c3n2)c1
stdout: class 0

stdin: Name the outcome recorded for CCOC(=O)N1CCC(NC(=O)c2cc(S(=O)(=O)N3CCCC3)cn2C)CC1 in the assay.
stdout: class 1

stdin: # lookup: test call for Cc1n[nH]c(=S)n1/N=C/c1ccc(Br)o1
stdout: class 0

stdin: Hi, do you know how COc1cccc(/C=N/NC(=O)c2c(-c3ccccc3)noc2C)c1 came out in this test?
stdout: class 1

stdin: Hi, sorry to bother you, what did the test record for COc1ccc(/C=N/n2c(-c3cccs3)n[nH]c2=S)cc1 ?
stdout: class 1

---
stdin: Just curious, what result did N#Cc1c(-c2ccc(Cl)cc2)nc2n(c1=O)CCCS2 get here?
stdout: class 1
